The measured values listed here are drawn from patent US12365685B2.

# target_system: Ret wt (Homo sapiens (Human), UniProt P07949)
# Sequence (P07949 29-1114): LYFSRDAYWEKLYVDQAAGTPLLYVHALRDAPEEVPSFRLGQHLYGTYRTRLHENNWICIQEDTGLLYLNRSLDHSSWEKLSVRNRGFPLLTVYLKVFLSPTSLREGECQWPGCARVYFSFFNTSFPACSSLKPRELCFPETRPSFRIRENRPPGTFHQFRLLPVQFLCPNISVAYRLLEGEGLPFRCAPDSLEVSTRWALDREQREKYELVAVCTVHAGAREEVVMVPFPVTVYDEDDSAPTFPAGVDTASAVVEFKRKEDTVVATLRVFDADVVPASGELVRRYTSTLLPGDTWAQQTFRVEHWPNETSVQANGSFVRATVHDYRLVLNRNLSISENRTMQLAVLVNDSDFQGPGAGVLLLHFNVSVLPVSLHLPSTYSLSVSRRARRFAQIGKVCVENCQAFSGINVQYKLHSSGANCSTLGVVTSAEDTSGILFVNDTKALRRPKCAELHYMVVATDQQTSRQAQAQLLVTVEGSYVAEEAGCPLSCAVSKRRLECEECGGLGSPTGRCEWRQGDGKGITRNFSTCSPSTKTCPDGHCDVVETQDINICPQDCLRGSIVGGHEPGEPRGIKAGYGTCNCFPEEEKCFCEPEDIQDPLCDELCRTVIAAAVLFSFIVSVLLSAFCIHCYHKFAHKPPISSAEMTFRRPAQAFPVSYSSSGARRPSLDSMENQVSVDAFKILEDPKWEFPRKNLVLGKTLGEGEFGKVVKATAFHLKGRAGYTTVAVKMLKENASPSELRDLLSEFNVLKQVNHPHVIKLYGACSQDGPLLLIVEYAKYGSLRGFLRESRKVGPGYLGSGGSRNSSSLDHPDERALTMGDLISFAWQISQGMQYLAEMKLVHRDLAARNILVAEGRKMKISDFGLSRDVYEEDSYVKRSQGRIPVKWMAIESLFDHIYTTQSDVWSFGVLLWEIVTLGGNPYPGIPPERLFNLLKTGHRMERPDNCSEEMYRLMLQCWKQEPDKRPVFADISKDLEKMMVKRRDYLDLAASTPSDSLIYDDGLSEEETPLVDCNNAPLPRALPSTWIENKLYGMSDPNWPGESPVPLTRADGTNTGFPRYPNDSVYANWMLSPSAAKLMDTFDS
# protocol_text: Inhibition of kinase, Ret wt (HTRF KinEASE-TK)
# Type: biochemical
# assay_setup: HTRF KinEASE-TK, reaction 20 minutes at room temperature; read-out: Ret wt IC50
result_type: IC50 (nM)

Recorded results for 5 compounds are shown here.
INSERT INTO assay_data (smiles_text, target_system, uom, measured) VALUES
  ('Cn1cc(-c2cnc3c(-c4ccc(CC(=O)Nc5cc(C(C)(C)C(F)(F)F)on5)cc4)cnn3c2)cn1', 'Ret wt (Homo sapiens (Human), UniProt P07949)', 'nM', 0.1),
  ('Cn1cc(-c2cnn3c(-c4ccc(CC(=O)Nc5cc(C(C)(C)C(F)(F)F)on5)c(F)c4)cnc3c2)cn1', 'Ret wt (Homo sapiens (Human), UniProt P07949)', 'nM', 0.15),
  ('Cn1cc(-c2cnn3c(-c4ccc(CC(=O)Nc5cc(C(C)(C)C(F)(F)F)on5)cn4)cnc3c2)cn1', 'Ret wt (Homo sapiens (Human), UniProt P07949)', 'nM', 0.24),
  ('Cn1cc(-c2cc3ncc(-c4ccc(CC(=O)Nc5cc(C(C)(C)C(F)(F)F)on5)c(F)c4)n3cn2)cn1', 'Ret wt (Homo sapiens (Human), UniProt P07949)', 'nM', 0.1),
  ('Cn1cc(Nc2nccn3c(-c4ccc(CC(=O)Nc5cc(C(C)(C)C(F)(F)F)on5)cc4)cnc23)cn1', 'Ret wt (Homo sapiens (Human), UniProt P07949)', 'nM', 0.25);

[P] Cn1cc(-c2ccc3c(-c4ccc(CC(=O)Nc5cc(C(C)(C)C(F)(F)F)on5)cc4)cnn3c2)cn1
[Q] Cn1cc(Nc2ccnn3c(-c4ccc(CC(=O)Nc5cc(C(C)(C)C(F)(F)F)on5)cc4)cnc23)cn1
### Prompt For the two items P and Q , which reports the higher IC50 value? Label of pick, please.
### Response P

[I] Cn1cc(-c2cnn3c(-c4ccc(CC(=O)Nc5cc(C(C)(C)C(F)(F)F)on5)cc4)cnc3c2)cn1
[II] Cn1cc(-c2cn3ncc(-c4ccc(CC(=O)Nc5cc(C(C)(C)C(F)(F)F)on5)cc4)c3cn2)cn1
### Prompt Which of these two has the smaller recorded IC50: I or II ? Label of pick, please.
### Response I
(I: 0.18 nM, II: 0.31 nM)

###

# System: Ba/F3 KIF5B-RET^V804M
# protocol_text: Cytotoxicity assay, Ba/F3 KIF5B-RET V804M (CellTiter-Glo)
# Assay type: cell-based
# assay_setup: Mus musculus, BaF3; 72 hrs, CTG
result_type: IC50 (nM)
Numbers only here, please. The scale is nM.

INSERT INTO assay_data (smiles_text, result_type, uom, measured) VALUES
  ('Cn1cc(-c2cnn3c(-c4ccc(CC(=O)Nc5cc(C(C)(C)C(F)(F)F)on5)cc4)cnc3c2)cn1', 'IC50', 'nM', 17.9);

### Prompt I'd like to know its IC50. The compound in question is Cn1cc(-c2cnn3c(-c4ccc(CC(=O)Nc5cc(C(C)(C)C(F)(F)F)on5)cn4)cnc3c2)cn1
### Response 559

### Prompt I'd like to know its IC50. The compound in question is Cn1cc(Nc2nccn3c(-c4ccc(CC(=O)Nc5cc(C(C)(C)C(F)(F)F)on5)cc4)cnc23)cn1
### Response 5.43

### Prompt I'd like to know its IC50. The compound in question is Cn1cc(-c2cnn3c(-c4ccc(CC(=O)Nc5cc(C(C)(C)C(F)(F)F)on5)c(F)c4)cnc3c2)cn1
### Response 10.8

### Prompt I'd like to know its IC50. The compound in question is Cn1cc(-c2ccc3c(-c4ccc(CC(=O)Nc5cc(C(C)(C)C(F)(F)F)on5)cc4)cnn3c2)cn1
### Response 3.66

### Prompt I'd like to know its IC50. The compound in question is Cn1cc(Nc2ccnn3c(-c4ccc(CC(=O)Nc5cc(C(C)(C)C(F)(F)F)on5)cc4)cnc23)cn1
### Response 20.9

### Prompt I'd like to know its IC50. The compound in question is Cn1cc(-c2cc3ncc(-c4ccc(CC(=O)Nc5cc(C(C)(C)C(F)(F)F)on5)cn4)n3cn2)cn1
### Response 125

### Prompt I'd like to know its IC50. The compound in question is Cn1cc(-c2cnc3c(-c4ccc(CC(=O)Nc5cc(C(C)(C)C(F)(F)F)on5)cc4)cnn3c2)cn1
### Response 8.15
